- tested system: human MC3R (human, UniProt P41968 1-323)
- Sequence (P41968 whole entry): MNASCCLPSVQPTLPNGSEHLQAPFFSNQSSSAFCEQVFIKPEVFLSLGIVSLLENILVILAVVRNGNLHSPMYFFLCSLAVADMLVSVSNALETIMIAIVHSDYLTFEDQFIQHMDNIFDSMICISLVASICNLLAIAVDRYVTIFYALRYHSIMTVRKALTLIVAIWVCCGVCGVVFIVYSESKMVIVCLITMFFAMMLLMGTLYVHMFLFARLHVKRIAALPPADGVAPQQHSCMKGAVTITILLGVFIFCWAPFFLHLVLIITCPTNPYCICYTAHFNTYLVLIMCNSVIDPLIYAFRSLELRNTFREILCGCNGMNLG
- protocol summary: cell-based or functional assay
Positions of bridges follow the written chain, without caps; N, C: chain ends. Non-standard residues stand in square brackets, D forms with d. dPhe(4-tBu) = CC(C)(C)c1ccc(C[C@@H](N)C(=O)O)cc1
cAMP EC50: recorded values
test readout: cAMP EC50 (µM)

>>> readout_value("Ac-RC[dA]R[dPhe(4-tBu)]R[dW]C-NH2 (disulfide 2-8; SMILES CC(=O)N[C@@H](CCCNC(=N)N)C(=O)N[C@H]1CSSC[C@@H](C(N)=O)NC(=O)[C@@H](Cc2c[nH]c3ccccc23)NC(=O)[C@H](CCCNC(=N)N)NC(=O)[C@@H](Cc2ccc(C(C)(C)C)cc2)NC(=O)[C@H](CCCNC(=N)N)NC(=O)[C@@H](C)NC1=O) [CTX-1242]")
0.0022
>>> readout_value("Ac-RC[dA]R[dF][dR]WC-NH2 (disulfide 2-8; SMILES CC(=O)N[C@@H](CCCNC(=N)N)C(=O)N[C@H]1CSSC[C@@H](C(N)=O)NC(=O)[C@H](Cc2c[nH]c3ccccc23)NC(=O)[C@@H](CCCNC(=N)N)NC(=O)[C@@H](Cc2ccccc2)NC(=O)[C@H](CCCNC(=N)N)NC(=O)[C@@H](C)NC1=O) [CTX-1282]")
0.545

FYI, the data here is from patent US20240391954A1.
